# Tested on: Human alphaherpesvirus 1
# assay.procedure: Inhibition of HSV-1 ribonucleotide reductase
# Design: concentration or dose not given beside the values
# condition.info: concentration not given here
measured.endpoint: inhibition (%)

O=C(NNC(=S)N/N=C/c1ccccn1)Nc1ccccc1Cl 14
C/C(=N\NC(=O)N/N=C(\S)Nc1ccccc1Cl)c1ccccn1 30
COc1ccccc1/N=C(\S)N/N=C(\S)N/N=C(\C)c1ccccn1 0
C/C(=N\N=C(/S)N/N=C(\S)Nc1ccccc1I)c1ccccn1 18
COc1ccc(N/C(S)=N/N=C(\S)N/N=C(\C)c2ccccn2)cc1 45

[I] C/C(=N\N=C(/S)N/N=C(\S)Nc1cccc(Cl)c1)c1ccccn1
[II] C/C(=N\N=C(/S)N/N=C(\S)Nc1cccc(Br)c1)c1ccccn1
[III] C/C(=N\N=C(/S)N/N=C(\S)Nc1ccc(Cl)cc1C)c1ccccn1
[IV] C/C(=N\N=C(/S)N/N=C(\S)Nc1ccc(Cl)c([N+](=O)[O-])c1)c1ccccn1
Order these by inhibition, descending, and give the full ranking. In plain terms: list the labels in the order you were asked to.
I, III, II, IV
(I: 50%, III: 31%, II: 15%, IV: 7%)

###

# experimental.system: Ribonucleoside-diphosphate reductase RR1 (Homo sapiens) (UniProt P23921+Q7LG56+P31350)
# assay.procedure: Inactivation of human ribonucleotide reductase by the compound (5 uM) at rate constant K inact.
# Format: protein-complex assay
measured.endpoint: kinact (h⁻¹)

Completed entries (count: 6):
C/C(=N\N=C(/S)NNC(=S)NC(=O)c1ccccc1)c1ccccn1 2
C/C(=N\N=C(/S)N/N=C(\S)NC12CC3CC(CC(C3)C1)C2)c1ccccn1 0
C/C(=N\N=C(/S)N/N=C(\S)Nc1cccc(C)c1)c1ccccn1 0
C/C(=N\N=C(/S)N/N=C(\S)Nc1ccncc1)c1ccccn1 0
COc1ccc(Cl)cc1/N=C(\S)N/N=C(\S)N/N=C(\C)c1ccccn1 1
C/C(=N\N=C(/S)N/N=C(\S)NCCCN1CCOCC1)c1ccccn1 0

[1] CCOC(=O)NC(=S)N/N=C(\S)N/N=C(\C)c1ccccn1
[2] C/C(=N\N=C(/S)N/N=C(\S)NCCN1CCOCC1)c1ccccn1
[3] C/C(=N\N=C(/S)N/N=C(\S)Nc1cccnc1)c1ccccn1
[4] C/C(=N\N=C(/S)N/N=C(\S)Nc1ccccc1C)c1ccccn1
[5] C/C(=N\N=C(/S)N/N=C(\S)Nc1ccccc1)c1ccccn1
List these items ordered by kinact, big to small. Please respond with the labels ordered as the question requires.
5, 1, 4, 2, 3

###

# Tested on: Human alphaherpesvirus 1
# assay.procedure: Inhibition of HSV-1 ribonucleotide reductase
# Design: concentration or dose not given beside the values
# condition.info: concentration not given here
measured.endpoint: inhibition (%)

C/C(=N\N=C(/S)N/N=C(\S)Nc1cc(Cl)c(Cl)cc1Cl)c1ccccn1 22

[I] C/C(=N\N=C(/S)N/N=C(\S)Nc1cccc(C#N)c1)c1ccccn1
[II] C/C(=N\N=C(/S)N/N=C(\S)Nc1ccc(C)cc1)c1ccccn1
[III] C/C(=N\N=C(/S)N/N=C(\S)Nc1cccc(C(F)(F)F)c1)c1ccccn1
[IV] CC(C)C/C(=N\N=C(/S)N/N=C(\S)Nc1ccccc1Cl)c1ccccn1
Ascending by inhibition, please: list the compounds accordingly. Reply format: the labels, ordered as requested.
I, III, II, IV
